# SYSTEM: T1, phosphorylase a (Oryctolagus cuniculus, UniProt P00489)
# T1 sequence (P00489 2-843 limits assumed): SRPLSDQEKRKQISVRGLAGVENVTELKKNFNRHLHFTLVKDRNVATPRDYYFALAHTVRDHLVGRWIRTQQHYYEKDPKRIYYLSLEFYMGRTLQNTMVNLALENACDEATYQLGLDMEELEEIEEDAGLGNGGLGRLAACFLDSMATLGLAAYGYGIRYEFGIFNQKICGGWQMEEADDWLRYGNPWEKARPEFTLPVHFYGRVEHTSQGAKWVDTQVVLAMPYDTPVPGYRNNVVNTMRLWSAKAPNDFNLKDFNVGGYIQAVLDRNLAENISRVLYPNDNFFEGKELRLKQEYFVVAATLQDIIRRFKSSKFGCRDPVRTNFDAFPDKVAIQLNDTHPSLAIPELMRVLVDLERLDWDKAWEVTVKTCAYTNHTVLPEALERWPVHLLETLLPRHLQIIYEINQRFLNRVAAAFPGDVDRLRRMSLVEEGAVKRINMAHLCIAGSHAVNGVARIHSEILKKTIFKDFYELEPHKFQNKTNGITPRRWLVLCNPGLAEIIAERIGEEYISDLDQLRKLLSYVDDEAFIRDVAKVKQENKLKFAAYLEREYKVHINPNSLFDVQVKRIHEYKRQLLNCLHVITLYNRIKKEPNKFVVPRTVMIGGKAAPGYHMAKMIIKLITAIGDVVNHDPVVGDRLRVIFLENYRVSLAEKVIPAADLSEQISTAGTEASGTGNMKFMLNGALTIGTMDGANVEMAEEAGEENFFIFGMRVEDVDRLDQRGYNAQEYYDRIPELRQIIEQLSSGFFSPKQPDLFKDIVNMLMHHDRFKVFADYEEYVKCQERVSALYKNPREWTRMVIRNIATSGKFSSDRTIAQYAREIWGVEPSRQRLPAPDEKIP
# TEST: Blot overlay binding of 32P-labelled phosphorylase a to GST-GL fusion proteins
# MEASUREMENT PARAMETERS: 100 nM 32P-phosphorylase a, fusion proteins on nitrocellulose membranes
QUANTITY: binding of 32P-labelled phosphorylase a

- MOLECULE: "GST-GL(1-257): GST fused to GL residues 1-257 (protein, left off: a dimerising Fc or GST) MAVDIEYSYSSMAPSLRRERFTFKISPKLNKPLRPCIQLGSKDEAGRMVAPTVQEKKVKKRVSFADNQGLALTMVKVFSEFDDPLDIPFNITELLDNIVSLTTAESESFVLDFPQPSADYLDFRNRLQTNHVCLENCVLKEKAIAGTVKVQNLAFEKVVKIRMTFDTWKSFTDFPCQYVKDTYAGSDRDTFSFDISLPEKIQSYERMEFAVCYECNGQSYWDSNKGKNYRITRAELRSTQGMTEPYNGPDFGISFDQ"
  VALUE: "not"
- MOLECULE: "GST-GL(1-216): GST fused to GL residues 1-216 (protein, left off: a dimerising Fc or GST) MAVDIEYSYSSMAPSLRRERFTFKISPKLNKPLRPCIQLGSKDEAGRMVAPTVQEKKVKKRVSFADNQGLALTMVKVFSEFDDPLDIPFNITELLDNIVSLTTAESESFVLDFPQPSADYLDFRNRLQTNHVCLENCVLKEKAIAGTVKVQNLAFEKVVKIRMTFDTWKSFTDFPCQYVKDTYAGSDRDTFSFDISLPEKIQSYERMEFAVCYECN"
  VALUE: "not"
- MOLECULE: "GST-GL(1-271): GST fused to GL residues 1-271 (protein, left off: a dimerising Fc or GST) MAVDIEYSYSSMAPSLRRERFTFKISPKLNKPLRPCIQLGSKDEAGRMVAPTVQEKKVKKRVSFADNQGLALTMVKVFSEFDDPLDIPFNITELLDNIVSLTTAESESFVLDFPQPSADYLDFRNRLQTNHVCLENCVLKEKAIAGTVKVQNLAFEKVVKIRMTFDTWKSFTDFPCQYVKDTYAGSDRDTFSFDISLPEKIQSYERMEFAVCYECNGQSYWDSNKGKNYRITRAELRSTQGMTEPYNGPDFGISFDQFGSPRCSFGLFPEW"
  VALUE: "not"
